Tested on: SNB-78
test-details: NCI tumour cell line growth inhibition, 48 h
Active and inactive are the calls of the source. Cut-off read from the data, not from the text of the source: active = GI50 up to about 1.1 µM and inactive = higher.
Would you mind telling me the reported GI50 of each entry?

// returns reported GI50 for input "N#Cc1ccccc1/C=N/O"
> 100 µM (inactive)

Consider the compound shown here: O=C(NC(Cc1ccc(I)cc1)C(=O)O)c1ccc(Cl)cc1 (stereo unspecified) What is its recorded GI50?
> 100 µM (inactive)

What value of GI50 has been recorded for this entry: "COc1cc(Nc2cnc3ccc(N)cc3n2)cc(OC)c1OC"
> 100 µM (inactive)

Would you mind telling me what GI50 value was observed for "C/C(Cc1ccccc1)=N\NC(N)=S" ?
> 100 µM (inactive)

What value of GI50 has been recorded for this entry: Nc1nc2c3c(ncn3CC(O)CO2)n1 (stereo unspecified)
> 100 µM (inactive)

Consider the compound shown here: "[O-][Cl+3]([O-])([O-])[O-].c1ccc(C[P+]2(c3ccccc3)CCCCC2)cc1" What is its recorded GI50?
> 100 µM (inactive)

---

Could you please report measured GI50 for the items listed next?
Tested on: NCI-H226
test-details: NCI tumour cell line growth inhibition, 48 h
Calls of active or inactive are those of the source. Cut-off read from the data, not from the text of the source: active = GI50 up to about 1.1 µM and inactive = higher. Square brackets hold non-standard residues; d marks the D form. Peptide text beside a SMILES is read from it. ξ: configuration not given here. ξ2Thi = NC(Cc1cccs1)C(=O)O; ξR = N=C(N)NCCCC(N)C(=O)O; ξI = CCC(C)C(N)C(=O)O; ξL = CC(C)CC(N)C(=O)O; ξK = NCCCCC(N)C(=O)O; ξT = CC(O)C(N)C(=O)O; ξA = CC(N)C(=O)O

I am curious: what GI50 value has been reported for CCC(C)C(NC(=O)C(Cc1cccs1)NC(=O)C(CC(C)C)NC(=O)C(CC(C)C)NC(=O)C(CCCCN)NC(=O)C(CCCN=C(N)N)NC(=O)[C@H](Cc1ccc(O)cc1)NC(=O)C(NC(=O)C(C)NC(=O)C(N)CC(C)C)C(C)O)C(=O)NC(CC(C)C)C(N)=O (some centres undefined) (H-[ξL][ξA][ξT]Y[ξR][ξK][ξL][ξL][ξ2Thi][ξI][ξL]-NH2) ?
> 50 µM (inactive)

Return reported GI50; argument: "Clc1ccc(/C(=C/c2ccccc2)Cn2ccnc2)cc1"
12.9 µM (inactive)

Query: GI50; subject: "C/C(=N\Nc1ccccc1)c1sc(-c2nc(C)c(/C(C)=N/Nc3ccccc3)s2)nc1C"
40.4 µM (inactive)

# input compound: "Cc1ccc(S(=O)(=O)N/C(=N\O)Nc2ccc(Cl)c(Cl)c2)cc1" ; wanted: its GI50
17.1 µM (inactive)

What value of GI50 has been recorded for this entry: "O=c1cc(NNc2cccc(F)c2)[nH]c(=S)[nH]1"
> 100 µM (inactive)

What GI50 value was documented for this compound, "O=[N+]([O-])c1ccccc1/C=N/C12CC3CC(CC(C3)C1)C2" ?
> 100 µM (inactive)

Given the compound "CCOc1ccc2c(c1)c(CC(=O)O)cn2C" , what is its reported GI50?
> 100 µM (inactive)

Name the reported GI50 value associated with the compound "O=c1[nH]c(-c2ccccc2)nc2ccc(Cl)cc12"
> 100 µM (inactive)

Value lookup for GI50; key = "N#Cc1nnc2c3c(-c4ccc(Cl)cc4)c(C#N)c(O)nc3nn2c1N"
9.55 µM (inactive)

# GI50 lookup, item "CC(C)=NN/C(=N\c1ccc(Cl)cc1)NS(=O)(=O)c1cc(Cl)c(Oc2ccc([N+](=O)[O-])cc2Cl)c(Cl)c1"
> 100 µM (inactive)

What does the data say about its GI50? Entry: "C=C(C)C(=O)O[C@@H]1C[C@@]2(C)O[C@@H]2C[C@H](O)/C(C)=C/[C@H]2OC(=O)C(=C)[C@@H]21"
> 100 µM (inactive)

What value of GI50 has been reported for the following compound? "COC(=O)/C=C1/OC(c2ccccc2)=C(C)C1=O"
15.8 µM (inactive)

Can you look up the measured GI50 of "COc1cc2c(c(OC)c1)C(=O)O[C@H](C)CCCC/C=C/C2" for me?
45.6 µM (inactive)

Can you share its GI50? I mean this compound: "COc1ccc2c(c1)-c1c(c3cc(OC)ccc3n1CCN1CCOCC1)CC2"
14.7 µM (inactive)

Fill blank: measured GI50 of the compound CC(=O)Nc1cccc(N2C(=O)/C(=C\c3cccc(Oc4ccccc4)c3)SC2c2ccccc2)c1 (centres undefined) is ____.
> 100 µM (inactive)

Could you tell me which GI50 is on file for "C(=C\c1ccccc1)/C=N/c1nc2cc3sc(/N=C/C=C/c4ccccc4)nc3cc2s1" ?
0.813 µM (active)

// GI50 lookup, key: "CCC(CON(C)c1ccccc1)(SC)SC"
> 100 µM (inactive)

Which GI50 is listed for O=S(=O)(c1ccccc1)C1CC(c2nc3ccccc3[nH]2)=NO1 (centres undefined) ?
> 100 µM (inactive)

Look up GI50: C=CC1OC(CCCOC(=O)C(C)(C)C)O[C@@H]1CC (some centres undefined)
> 100 µM (inactive)

---

System: SW-620
test-details: NCI tumour cell line growth inhibition, 48 h
Structures can show the parent of a compound that is named as a salt. The source made the active and inactive calls. No stated cut-off is given here; in the data, active = GI50 up to about 1.1 µM and inactive = higher.
measurement-kind: GI50

Please give the measured GI50 for this compound: "CC(=O)Nc1ccc2nc(-c3cccc(Cl)c3)cc(O)c2c1"
4.41 µM (inactive)

Reported GI50 for COC(=O)C1=C(C[S+]([O-])c2ccc([N+](=O)[O-])cc2[N+](=O)[O-])ON(C)C1c1ccccc1 (stereo not drawn) : what is it?
15.7 µM (inactive)

Given "CC(C)(C)c1ccc(-c2nc3ccc([N+](=O)[O-])cc3c(=O)o2)cc1" , state its recorded GI50.
31 µM (inactive)

Value lookup for GI50; key = "C=C(C)C(=O)O[C@@H]1C[C@@]2(C)O[C@@H]2C[C@H](O)/C(C)=C/[C@H]2OC(=O)C(=C)[C@@H]21"
18.7 µM (inactive)

Given the compound CCN(CC)CCNc1ccc(CO)c2sc3ccccc3c(=O)c12 [HYCANTHONE MESYLATE] , what is its reported GI50?
2.75 µM (inactive)

I would be grateful if you could share the reported GI50 for "NC(=O)c1nnc2cc(F)ccc2c1N" .
> 100 µM (inactive)

Which GI50 is reported for this compound? "N#CCCN(CCC#N)c1ccc(/C=C2\N=C(COc3ccc(Cl)cc3Cl)OC2=O)cc1"
> 100 µM (inactive)

Returns the measured GI50 for the input compound. Input: "Oc1c2c(nc3cc4c(cc13)OCO4)-c1ccccc1CC2"
> 100 µM (inactive)

What does the data say about its GI50? Entry: "Cc1ccc(S(=O)(=O)N/N=C2/CCCOC2)cc1"
> 100 µM (inactive)

// lookup GI50 for COC(=O)CCC1=CCC2(SC)C(=O)Nc3cccc1c32 (stereo not drawn)
> 100 µM (inactive)

Report GI50 for Nc1ncnc2c1ncn2[C@]1(CO)C=C(CO)C(O)C1O (stereo partly drawn) please.
> 100 µM (inactive)

What does the record list as GI50 for "CCCOc1ccc(/C=C/C2=[N+](CCO)CCO2)cc1" ?
> 100 µM (inactive)

Fill in: GI50 of "COc1cc2c(cc1OC)C(Cc1cc(Br)c(OC)c(OC)c1)=[N+](C)CC2" is ___
67.3 µM (inactive)

If you can, please state the reported GI50 value of O=C1OC(c2ccccc2)N(C(=O)c2ccccc2)C1Cc1ccc(OCc2ccccc2)cc1 (stereo not drawn) .
> 100 µM (inactive)

Give its GI50 value. Item: "CCC(CON(C)c1ccccc1)(SC)SC"
> 100 µM (inactive)

Which GI50 value is on record for "FC(F)(F)c1n[nH]c(SCc2ccc(Cl)cc2)n1" ?
> 100 µM (inactive)

Record request: GI50 value, item "CC(C)Cn1cnc2c(Cl)nc3ccccc3c21"
47.3 µM (inactive)

I'd like to know its GI50. The compound in question is OCC1OC(n2cnc3cccnc32)CC1O (stereo not drawn)
> 100 µM (inactive)

Which GI50 is listed for "O=C1C(O)=C(CC=C(Cl)Cl)C(=O)c2ccccc21" ?
8.93 µM (inactive)

Return reported GI50; argument: "Cc1c(Cl)nc(Nc2nc3ccccc3[nH]2)nc1Cl"
31.2 µM (inactive)

May I ask what GI50 has been recorded for Cc1ccc2c(c1)C(=O)C1(C2)Cc2c(C)cccc2C1=O (stereo not drawn) ?
> 100 µM (inactive)

Query (compound): "O=[As](O)(O)c1ccc2nc3cc([As](=O)(O)O)ccc3nc2c1" ; field requested: GI50
> 100 µM (inactive)

What value of measured GI50 is listed for CC1(C)C2CCC13C(=O)C1OC3(C2)C2C(=O)N(c3ccccc3)C(=O)C12 (stereo not drawn) ?
> 100 µM (inactive)
